# procedureSummary: Particle size and PDI by dynamic light scattering (Malvern Zetasizer)
# Assay type: physicochemical
# testParameters: lipid/no neutral lipid/CHOL/AVANTI 880150P 50/0/46/4, N/P 3.43
Documented Final size (nm) across a set of compounds
Note: unit nm is implicit; provide only the numeric part.

Exam item: Value lookup for Final size (nm); key = CCCCC/C=C\C/C=C\CCCCCCCCOCC(CN1CCc2ccccc2C1)OCCOCCO[C@H]1CC[C@@]2(C)C(=CC[C@H]3[C@@H]4CC[C@H]([C@H](C)CCCC(C)C)[C@@]4(C)CC[C@@H]32)C1 (some centres unmarked)
Marked response: 77

* * *

# procedureSummary: Particle size and PDI by dynamic light scattering (Malvern Zetasizer)
# Assay type: physicochemical
# testParameters: lipid/no neutral lipid/CHOL/AVANTI 880150P 50/0/46/4, N/P 3.43
This section presents molecules with their documented Final size (nm) values.
Report as a plain number; the unit nm is understood.

Exam item: Look up Final size (nm) for this molecule: CCCCC/C=C\C/C=C\CCCCCCCCOCC(CN1CCC(F)(F)CC1)OCCOCCO[C@H]1CC[C@@]2(C)C(=CCC3C2CC[C@@]2(C)C3CC[C@@H]2[C@H](C)CCCC(C)C)C1 (stereo partly shown)
Marked response: 170

Exam item: Now consider CCCCC/C=C\C/C=C\CCCCCCCCOCC(CN1CCC(O[Si](C)(C)C(C)(C)C)C1)OCCOCCO[C@H]1CC[C@@]2(C)C(=CC[C@H]3[C@@H]4CC[C@H]([C@H](C)CCCC(C)C)[C@@]4(C)CC[C@@H]32)C1 (stereo partly shown) and answer again.
Marked response: 73

Exam item: Please do the same for CCCCC/C=C\C/C=C\CCCCCCCCOCC(CN1CCC[C@@H]1COC)OCCOCCO[C@H]1CC[C@@]2(C)C(=CC[C@H]3C4CC[C@H]([C@H](C)CCCC(C)C)[C@@]4(C)CC[C@@H]32)C1 (stereo partly shown) as well.
Marked response: 117

Exam item: Try the molecule CCCCC/C=C\C/C=C\CCCCCCCCOCC(CN(C)C)OCCCCO[C@H]1CC[C@@]2(C)C(=CCC3C2CC[C@@]2(C)C3CC[C@@H]2[C@H](C)CCCC(C)C)C1 (stereo partly shown) [E0173, reference compound]
Marked response: 76

The origin of these recorded values is patent US9301923B2.
